test system: LI1646 HCC patient derived cells; test: CellTiter-Glo growth inhibition, HCC patient-derived cells LI1646; format: cell-based, human; settings: Homo sapiens; LI1646, 72 hours
Where a name gives a salt, the structure may show the parent alone.
experimental_endpoint: EC50 (µM)
Respond numerically; units are µM and should not be typed.

EC50 reading for `CNC(=O)c1cc(Oc2ccc(NC(=O)Nc3ccc(Cl)c(C(F)(F)F)c3)cc2)ccn1` : 10.3

CC(C)(C)NC1CCN(c2cc(NCc3ccc(Cl)cc3)nc3ccccc23)CC1 [Compound 2-3, hydrochloride salt] yielded EC50 of 1.4

----------
test system: LI1005 HCC patient derived cells; assay: CellTiter-Glo growth inhibition, HCC patient-derived cells LI1005; type: cell-based, human; conditions: Homo sapiens; LI1005, 72 hours
Counter-ions that a name gives are not always drawn.
experimental_endpoint: pEC50
As a rule, pEC50 stands for the negative log10 of the concentration, concentration in M.

Value of pEC50 reported for the molecule `CNC(=O)c1cc(Oc2ccc(NC(=O)Nc3ccc(Cl)c(C(F)(F)F)c3)cc2)ccn1` is 4.84

// field: pEC50; key: CC(C)(C)NC1CCN(c2cc(NCc3ccc(Cl)cc3)nc3ccccc23)CC1 [Compound 2-3, hydrochloride salt] ; value = 5.49

----------
test system: CPP36 liver metastatic CRC patient-derived cells; experiment: CellTiter-Glo growth inhibition, liver metastatic CRC patient-derived cells CPP36; assay type: cell-based; details: Homo sapiens; CPP36, 72 h
Where a name gives a salt, the structure may show the parent alone.
experimental_endpoint: EC50 (nM)
The reply should be a number in nM, with the unit left off.

The measured EC50 associated with CC(C)(C)NC1CCN(c2cc(NCc3ccc(Cl)cc3)nc3ccccc23)CC1 [Compound 2-3, hydrochloride salt] reads 1450

----------
tested on: CAKI-1 cell line; assay: CellTiter-Glo growth inhibition assay, CAKI-1; assay type: cell-based; conditions: Homo sapiens, CAKI-1, 72 h
Counter-ions that a name gives are not always drawn.
Could you please report measured EC50 for the items listed next?
Respond with a number, then the unit of measure.

CC(C)(C)NC1CCN(c2cc(NCc3ccc(Cl)cc3)nc3ccccc23)CC1 [Compound 2-3, hydrochloride salt] yielded EC50 of 1400 nM

Looking up CNC(=O)c1cc(Oc2ccc(NC(=O)Nc3ccc(Cl)c(C(F)(F)F)c3)cc2)ccn1 [Sorafenib] , I see its EC50 listed as 4500 nM

Lab book: EC50 of CCN(CC)CCNC(=O)c1c(C)[nH]c(/C=C2\C(=O)Nc3ccc(F)cc32)c1C [Sunitinib] noted as 1700 nM

----------
system: HCT-116 cell line; test: CellTiter-Glo growth inhibition assay, HCT-116; assay type: cell-based; conditions: Homo sapiens; HCT-116, colorectal carcinoma, 72 h
Structures can show the parent of a compound that is named as a salt.
Assignment: determine reported pEC50 for the given molecules.
Would you please state pEC50, meaning minus log10 of the concentration in mol/L, as a bare number?

Reported pEC50 for Cc1cc(Nc2cc(N3CCC(NC(C)(C)C)CC3)c3ccccc3n2)ccc1Nc1nccc(-c2cccnc2)n1 [Compound 4-3, hydrochloride salt] was 5.74

The recorded pEC50 for CC(C)(C)NC1CCN(c2cc(NCc3ccc(Cl)cc3)nc3ccccc23)CC1 [Compound 2-3, hydrochloride salt] is 5.80
